Numbers sourced from PubChem BioAssay (NCATS).

assay: qHTS of pediatric cancer cell lines to identify multiple opportunities for drug repurposing: Primary screen for RD cells (AID 1347104); conditions: RD rhabdomyosarcoma viability, CellTiter-Glo luminescence, 48 h; series mostly up to 46 µM; also: nearly all actives have a fitted effect of over 55% in size
Records with an inconclusive call do not appear. The source made the active and inactive calls. Calls follow the shape of the dose curve; as a rule, active = well fitted cell-killing curve with a large enough effect; inconclusive = small, poorly fitted or top-dose-only effect; inactive = flat fitted curve, though single readings scatter.
In this exercise, the only acceptable responses are active, inactive

Reference set (8 entries):
CN(C)C(=O)Oc1cccc([N+](C)(C)C)c1; inactive
CCN(Cc1ccncc1)C(=O)C(CO)c1ccccc1 (stereo unspecified); inactive
OCCN1CCN(CC/C=C2/c3ccccc3Sc3ccc(C(F)(F)F)cc32)CC1; active
NC(N)=NC(=O)Cc1c(Cl)cccc1Cl; inactive
C[n+]1cc2c3c(ccc2c2ccc4cc5c(cc4c21)OCO5)OCO3; active
Cc1scc2c1N(C(=O)CN1CCN(C)CC1)c1ccccc1NC2=O; inactive
Cc1ccc(=O)n(-c2ccccc2)c1; inactive
c1cnc(N2CCN(Cc3ccc4c(c3)OCO4)CC2)nc1; inactive

input: Dear colleague, could you share the recorded outcome for C[C@]12CCC(=O)C=C1CC[C@@H]1[C@@H]2C(=O)C[C@@]2(C)[C@H]1CC[C@]2(O)C(=O)CO when you have a moment?
output: inactive

input: Dear colleague, could you share the recorded outcome for CN1C[C@H](C(=O)N[C@]2(C)O[C@@]3(O)[C@@H]4CCCN4C(=O)[C@H](Cc4ccccc4)N3C2=O)C[C@@H]2c3cccc4[nH]cc(c34)C[C@H]21 when you have a moment?
output: inactive

input: Dear colleague, could you share the recorded outcome for CC(C)[N+](C)(CCOC(=O)C1c2ccccc2Oc2ccccc21)C(C)C when you have a moment?
output: inactive

input: Dear colleague, could you share the recorded outcome for Nc1nc(N)c2nc(-c3ccccc3)c(N)nc2n1 when you have a moment?
output: active

input: Dear colleague, could you share the recorded outcome for CC(C)(Oc1ccc(CCNC(=O)c2ccc(Cl)cc2)cc1)C(=O)O when you have a moment?
output: inactive
